Tested on: human Factor 11 mRNA
Assay: Antisense inhibition of human Factor 11 in HepG2 cells by microwalk gapmers, lipofectin, 75 nM (Example 3)
Assay type: cell-based
Conditions: HepG2, lipofectin, ~24 h, gapmers targeted to nucleobases 656 to 704 of SEQ ID NO: 1
Strand notation (5' to 3'): a small letter for the sugar, then the base; units joined by * are phosphorothioate-linked, units joined directly phosphodiester-linked; [ ] holds rarer units or linkages, { } end groups; capitals alone tell only the bases. e = 2'-O-(2-methoxyethyl) (MOE); [5mC] = 5-methylcytosine; d = 2'-deoxy (DNA)
What % inhibition was measured for each of the following?
Give a bare numeral; the unit % is implied.

Lookup: # input substance: 416825 (antisense GCCCTTCATGTCTAGGTCCA; 5-10-5 gapmer, further chemistry not given here) [compound 416825] ; wanted: its % inhibition
Found: 92

Lookup: # input substance: 416829 (antisense eT*eT*eT*eA*eT*dG*d[5mC]*d[5mC]*d[5mC]*dT*dT*d[5mC]*dA*dT*dG*eT*e[5mC]*eT*eA*eG) [compound 416829] ; wanted: its % inhibition
Found: 72

Lookup: # input substance: 416974 (antisense eT*eT*dT*dA*dT*dG*d[5mC]*d[5mC]*d[5mC]*dT*dT*d[5mC]*dA*dT*dG*eT*e[5mC]*eT*eA*eG) [compound 416974] ; wanted: its % inhibition
Found: 73

Lookup: # input substance: 416873 (antisense eA*e[5mC]*eA*dT*dA*dA*dA*dT*dG*dT*d[5mC]*dT*dT*dT*dG*dT*dT*eG*e[5mC]*eA) [compound 416873] ; wanted: its % inhibition
Found: 51

Lookup: # input substance: 416892 (antisense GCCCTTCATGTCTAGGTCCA; 3-14-3 chimeric gapmer, further chemistry not given here) [compound 416892] ; wanted: its % inhibition
Found: 100

Lookup: # input substance: 416813 (antisense eG*eT*e[5mC]*e[5mC]*eA*d[5mC]*dA*dT*dA*dA*dA*dT*dG*dT*d[5mC]*eT*eT*eT*eG*eT) [compound 416813] ; wanted: its % inhibition
Found: 70

Lookup: # input substance: 416817 (antisense eT*e[5mC]*eT*eA*eG*dG*dT*d[5mC]*d[5mC]*dA*d[5mC]*dA*dT*dA*dA*eA*eT*eG*eT*e[5mC]) [compound 416817] ; wanted: its % inhibition
Found: 74

Lookup: # input substance: 416878 (antisense eG*eG*eT*d[5mC]*d[5mC]*dA*d[5mC]*dA*dT*dA*dA*dA*dT*dG*dT*d[5mC]*dT*eT*eT*eG) [compound 416878] ; wanted: its % inhibition
Found: 95

Lookup: # input substance: 416949 (antisense e[5mC]*eA*dT*dA*dA*dA*dT*dG*dT*d[5mC]*dT*dT*dT*dG*dT*eT*eG*e[5mC]*eA*eA) [compound 416949] ; wanted: its % inhibition
Found: 64

Lookup: # input substance: 412203 (antisense eA*eA*eT*eG*eT*d[5mC]*dT*dT*dT*dG*dT*dT*dG*d[5mC]*dA*eA*eG*e[5mC]*eG*e[5mC]) [compound 412203] ; wanted: its % inhibition
Found: 97

Lookup: # input substance: 416890 (antisense e[5mC]*e[5mC]*eT*dT*d[5mC]*dA*dT*dG*dT*d[5mC]*dT*dA*dG*dG*dT*d[5mC]*d[5mC]*eA*e[5mC]*eA) [compound 416890] ; wanted: its % inhibition
Found: 87
